// provenance: patent US8129355B2

test.system: GAL4 DBD-CfEcR(DEF)/VP16AD-MmRXRE (Choristoneura fumiferana, UniProt O77240)
Sequence (O77240 1-513): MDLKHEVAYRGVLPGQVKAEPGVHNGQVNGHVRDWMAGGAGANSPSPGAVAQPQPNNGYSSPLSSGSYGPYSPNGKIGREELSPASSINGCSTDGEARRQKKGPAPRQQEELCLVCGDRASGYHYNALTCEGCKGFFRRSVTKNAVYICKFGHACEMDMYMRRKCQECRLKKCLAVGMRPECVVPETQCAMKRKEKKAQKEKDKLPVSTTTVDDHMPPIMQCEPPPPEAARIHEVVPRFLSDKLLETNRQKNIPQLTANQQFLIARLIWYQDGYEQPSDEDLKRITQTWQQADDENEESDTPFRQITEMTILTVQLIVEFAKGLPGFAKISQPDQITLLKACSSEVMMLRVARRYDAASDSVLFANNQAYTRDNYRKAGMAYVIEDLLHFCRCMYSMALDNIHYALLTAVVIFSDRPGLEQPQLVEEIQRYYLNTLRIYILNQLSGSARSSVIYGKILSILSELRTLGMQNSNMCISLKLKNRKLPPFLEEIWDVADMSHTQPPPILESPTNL
test.description: cell-based
condition.context: maximum fold induction at any concentration relative to that of GS-E ligand
Property: 13B3 Rel Max FI; scope: individual compounds
Respond using a number only.

COc1cccc(C(=O)NC(C)(CC(C)C)C(=O)c2cccc(C)c2)c1C (stereo not drawn)	0.00
COc1cc(C(=O)C2(NC(=O)c3cccc(OC)c3C)CCCCC2)cc(OC)c1C	0.50

Reported 13B3 Rel Max FI for COc1ccccc1C(=O)C(C)(NC(=O)c1cccc(OC)c1C)C(C)C (stereo not drawn) was 0.00

---

Below: a set of entries, each annotated with reported Fold Induction Average, Z3 Assay (33 μM).
test.system: Bombyx mori EcR (VP16 fusion, switch construct CVBE) with 6XEcRE LacZ reporter (Bombyx mori)
Construct: expressed in transfected cells; host or cells: Human 293 kidney (HEK-293) cells, retrovirally infected, clone Z3
test.description: Z3 assay: β-galactosidase (LacZ) reporter gene fold induction in stably transformed human 293 kidney cells (clone Z3)
Assay type: cell-based
condition.context: single dose 33 μM; ligand treated / DMSO treated cells
Method: Dr. F. Gage provided a population of stably transformed cells containing CVBE and 6XEcRE as described in Suhr, S. T., Gil, E. B., Senut M. C., Gage, F. H. (1998) Proc. Natl. Acad. Sci. USA 95, 7999-804. […] Dilution cloning was used to isolate individual clones. […] Individual clones were evaluated based on their response in the presence and absence of test ligands. […]

COc1cccc(C(=O)NC2(C(=O)c3ccc4c(c3)OCO4)CCCCC2)c1C	21
CCOC(=O)CN1CCC(NC(=O)c2cccc(OC)c2C)(C(=O)c2cc(C)cc(C)c2)CC1	6
COc1cccc(C(=O)NC(C)(Cc2ccccc2)C(=O)c2ccc(C)cc2)c1C (centres unmarked)	10
COC(=O)CN1CCCC(NC(=O)c2cccc(OC)c2C)(C(=O)c2cc(C)cc(C)c2)C1 (racemic)	78
COc1cccc(C(=O)NC2(C(=O)c3cc(C)cc(C)c3)CCN(S(C)(=O)=O)CC2)c1C	3
COc1cccc(C(=O)NC(C(=O)c2cc(C)cc(C)c2)C(C)(C)C)c1C (centres unmarked)	15
COc1cccc(C(=O)NC(C)(C(=O)c2cc(C)cc(C)c2)c2ccc(F)cc2)c1C (centres unmarked)	4
CC(=O)NC(C(=O)c1ccc(C)cc1)c1ccccc1 (centres unmarked)	1

According to the records, this compound COc1cccc(C(=O)NC2(C(=O)c3cc(C)cc(C)c3)CCCN(C(C)=O)C2)c1C (racemic) displays Fold Induction Average, Z3 Assay (33 μM) of 3

Lab note: COc1cccc(C(=O)NC(C)(C)C(=O)c2ccccc2)c1 gave Fold Induction Average, Z3 Assay (33 μM) of 1

For reference, reported Fold Induction Average, Z3 Assay (33 μM) for CCOC(=O)C(=O)N1CCCC(NC(=O)c2cccc(OC)c2C)(C(=O)c2cc(C)cc(C)c2)C1 (racemic) stands at 7

---

test.system: Gal4 DBD/AaEcR (DEF) with VP16-βRXR-E (Aedes aegypti)
Construct: The wildtype D, E, and F domains from mosquito Aedes aegypti EcR (“AaEcR-DEF”); expressed in transfected cells; host or cells: 3T3 cells, transient transfection (Superfect)
Sequence (P28704 286-520 A311G/G315S/G445S/I449V): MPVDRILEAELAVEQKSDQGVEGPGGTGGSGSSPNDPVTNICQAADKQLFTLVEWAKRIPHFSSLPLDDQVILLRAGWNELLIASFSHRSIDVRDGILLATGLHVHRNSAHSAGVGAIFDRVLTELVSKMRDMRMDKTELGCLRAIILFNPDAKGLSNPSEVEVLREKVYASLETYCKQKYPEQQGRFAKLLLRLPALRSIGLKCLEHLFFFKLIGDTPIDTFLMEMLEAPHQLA
Sequence (P49880 405-776): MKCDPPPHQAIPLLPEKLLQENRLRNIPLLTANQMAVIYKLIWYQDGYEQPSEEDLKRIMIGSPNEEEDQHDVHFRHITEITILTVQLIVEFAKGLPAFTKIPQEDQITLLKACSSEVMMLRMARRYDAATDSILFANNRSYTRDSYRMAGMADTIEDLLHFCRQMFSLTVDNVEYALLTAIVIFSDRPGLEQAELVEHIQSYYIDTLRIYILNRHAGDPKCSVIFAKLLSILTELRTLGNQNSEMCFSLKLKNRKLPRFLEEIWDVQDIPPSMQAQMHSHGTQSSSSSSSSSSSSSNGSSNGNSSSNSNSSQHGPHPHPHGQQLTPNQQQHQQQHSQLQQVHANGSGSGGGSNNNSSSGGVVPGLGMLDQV
test.description: cell-based
Format: cell-based
condition.context: maximum fold induction at any concentration relative to that of GS-E ligand
Experimental: 3T3 cells were trypsinized and plated at 2.5×10^3 cells/well on a 96-well plate. After incubation for 24 h at 37° C. under 5% CO2, cells were transfected with the Gal4 DBD/AaEcR (DEF) gene expression cassette and the reporter plasmid, pFRLuc, containing a 5XGAL4 response element and the firefly luciferase gene in serum free media using Superfect (Qiagen). After transfection for 4 h at 37° C., the cells were treated with ligand in serum media. […] Single dose testing was performed at 33 μM.
Is AA_3T3 Rel Max FI at least 0.5? Then t. If not, f.

COc1cccc(C(=O)NC(C)(C)C(=O)c2cc(C)cc(C)c2)c1C [Example 75]	f
COc1cccc(C(=O)NC2(C(=O)c3cc(C)cc(C)c3)CCCCCC2)c1C [Example 71]	f
CCc1ccc(C(=O)NC2(C(=O)c3cc(C)cc(C)c3)CCCC2)cc1 [Example 138]	f
CCc1c(OC)cccc1C(=O)NC1(C(=O)c2cc(C)cc(C)c2)CCCC1 [Example 144]	t
COc1cccc(C(=O)NC2(C(=O)c3cc(C)cc(C)c3)CCCC2)c1 [Example 137]	f

Let's switch to this compound now.
q: Has COc1ccccc1C(=O)C1(NC(=O)c2cccc(OC)c2C)CCCCCC1 [Example 70] a recorded AA_3T3 Rel Max FI greater than or equal to 0.5?
a: f

---

test.system: GAL4 DBD (1-147)-CfEcR(DEF)/VP16AD-βRXREF-LmUSPEF (Choristoneura fumiferana, UniProt O77240)
Sequence (O77240 191-513): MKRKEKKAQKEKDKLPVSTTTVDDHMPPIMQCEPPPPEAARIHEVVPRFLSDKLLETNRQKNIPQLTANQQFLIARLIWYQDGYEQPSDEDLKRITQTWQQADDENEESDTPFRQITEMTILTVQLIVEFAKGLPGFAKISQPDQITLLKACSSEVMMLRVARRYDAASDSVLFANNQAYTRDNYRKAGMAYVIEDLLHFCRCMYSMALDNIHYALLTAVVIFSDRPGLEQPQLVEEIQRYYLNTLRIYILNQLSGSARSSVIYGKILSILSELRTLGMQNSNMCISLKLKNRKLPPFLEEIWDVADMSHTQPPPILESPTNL
Sequence (P28702 296-455 partner limits assumed): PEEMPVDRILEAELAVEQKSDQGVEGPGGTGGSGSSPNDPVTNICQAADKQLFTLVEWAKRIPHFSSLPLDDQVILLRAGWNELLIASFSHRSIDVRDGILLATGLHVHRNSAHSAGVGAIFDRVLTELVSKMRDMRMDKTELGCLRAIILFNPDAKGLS
test.description: 27-63 assay: luciferase reporter gene expression in stable CHO cell clone 27-63
condition.context: read-out: 27-63 LC50; average; dose response, three-parameter logistic model
value.kind: CC50

GET /value?item= COc1cccc(C(=O)NC(C)(Cc2ccccc2)C(=O)c2cc(C)cc(C)c2)c1C (stereo not shown) &field=CC50 returns > 33 µM

compound Cc1ccccc1C(=O)NC1(C(=O)c2ccccc2)CCCC1 , CC50 observed: > 33 µM

Per the records, this compound ( COc1cccc(C(=O)NC2(C(=O)c3ccc(F)cc3)CCCCC2)c1C ) has CC50 equal to ~9 µM

// recorded CC50 for COc1cccc(C(=O)NC2(C(=O)c3ccccc3C)CCCCC2)c1C : > 33 µM

---

test.system: Bombyx mori EcR (VP16 fusion, switch construct CVBE) with 6XEcRE LacZ reporter (Bombyx mori, UniProt P49881)
Construct: expressed in transfected cells; host or cells: Human 293 kidney (HEK-293) cells, retrovirally infected, clone Z3
test.description: Z3 assay: β-galactosidase (LacZ) reporter gene fold induction in stably transformed human 293 kidney cells (clone Z3)
Type: cell-based
condition.context: read-out: Fold Induction Average, Z3 Assay (33 μM)
Items are presented alongside their recorded fold induction at 33 µM.
No unit in the answer, only the number.

Noted for COc1cccc(C(=O)NC(C)(C(=O)c2cc(C)cc(C)c2)C(C)C)c1C (stereo not shown) : its fold induction at 33 µM reads 573

---

test.system: GAL4 DBD (1-147)-CfEcR(DEF)/VP16AD-βRXREF-LmUSPEF (Choristoneura fumiferana)
test.description: 27-63 assay: luciferase reporter gene expression in stable CHO cell clone 27-63
condition.context: maximum fold induction at any concentration relative to that of GS-E ligand
# if value of 27-63 Rel Max FI reaches 0.04, tag Met; if it stays below, tag Not met

COc1ccccc1C(=O)C(C)(NC(=O)c1cccc(OC)c1C)C(C)C (stereo not drawn)	Not met
COc1cccc(C(=O)NC2(C(=O)c3cccc(C)c3)CCOCC2)c1C	Not met
COc1cccc(C(=O)NC2(C(=O)c3cc(F)c(F)c(OC)c3)CCCC2)c1C	Met
COc1cccc(C(=O)NC2(C(=O)c3cc(C)cc(C)c3)CCCC2)c1	Met

q: Please check the record COc1cccc(C(=O)NC(C)(CC(C)C)C(=O)c2cc(C)cc(C)c2)c1C (stereo not drawn) and state if its 27-63 Rel Max FI is at or above 0.04.
a: Met

q: Could you please find out whether CCC(CC)(NC(=O)c1cccc(OC)c1C)C(=O)c1ccc(C)cc1 has 27-63 Rel Max FI that meets 0.04 or exceeds it?
a: Not met

q: Could you please find out whether COc1cccc(C(=O)NC2(C(=O)c3ccc(F)c(C)c3)CCCCC2)c1C has 27-63 Rel Max FI that meets 0.04 or exceeds it?
a: Met

---

test.system: Bombyx mori EcR (VP16 fusion, switch construct CVBE) with 6XEcRE LacZ reporter (Bombyx mori, UniProt P49881)
Construct: expressed in transfected cells; host or cells: Human 293 kidney (HEK-293) cells, retrovirally infected, clone Z3
Sequence (P49881 86-606 limits assumed): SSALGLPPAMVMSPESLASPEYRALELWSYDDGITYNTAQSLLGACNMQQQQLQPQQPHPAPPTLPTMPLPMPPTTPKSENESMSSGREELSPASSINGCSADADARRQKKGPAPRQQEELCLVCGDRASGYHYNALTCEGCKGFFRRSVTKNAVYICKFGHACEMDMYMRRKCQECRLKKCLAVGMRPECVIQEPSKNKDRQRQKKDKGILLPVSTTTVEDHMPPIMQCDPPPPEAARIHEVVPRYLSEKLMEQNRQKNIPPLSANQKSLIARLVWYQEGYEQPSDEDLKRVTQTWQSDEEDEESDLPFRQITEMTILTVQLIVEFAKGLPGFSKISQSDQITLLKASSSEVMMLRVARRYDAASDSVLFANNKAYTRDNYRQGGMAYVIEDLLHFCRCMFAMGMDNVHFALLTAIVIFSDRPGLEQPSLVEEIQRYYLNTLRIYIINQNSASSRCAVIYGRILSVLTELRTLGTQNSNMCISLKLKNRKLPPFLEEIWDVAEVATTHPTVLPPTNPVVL
Sequence (P19793 1-462 partner): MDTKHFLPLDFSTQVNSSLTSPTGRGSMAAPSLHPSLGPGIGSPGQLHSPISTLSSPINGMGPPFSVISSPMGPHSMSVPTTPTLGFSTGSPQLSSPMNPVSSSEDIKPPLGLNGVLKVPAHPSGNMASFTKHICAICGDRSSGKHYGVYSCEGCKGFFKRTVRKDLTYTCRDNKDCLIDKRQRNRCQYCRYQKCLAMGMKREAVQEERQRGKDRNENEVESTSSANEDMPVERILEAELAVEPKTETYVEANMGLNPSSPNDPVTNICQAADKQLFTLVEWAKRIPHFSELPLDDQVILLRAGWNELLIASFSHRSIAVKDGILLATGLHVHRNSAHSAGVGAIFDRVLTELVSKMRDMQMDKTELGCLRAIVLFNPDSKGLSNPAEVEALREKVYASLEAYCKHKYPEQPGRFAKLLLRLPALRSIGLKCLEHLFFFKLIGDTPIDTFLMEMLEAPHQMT
test.description: Z3 assay: β-galactosidase (LacZ) reporter gene fold induction in stably transformed human 293 kidney cells (clone Z3)
Assay type: cell-based
condition.context: maximum fold induction at any concentration relative to that of GS-E ligand
value.kind: Z3 Rel Max FI
Field format: numeric only.

COc1cccc(C(=O)NC2(C(=O)c3cc(C)cc(C)c3)CCCCCC2)c1C [Example 71]	0.69

Reported Z3 Rel Max FI ( COc1cccc(C(=O)NC2(C(=O)c3ccc(C)cc3)CCCCC2)c1C [Example 15] ) = 0.70

# Z3 Rel Max FI (compound: COc1cccc(C(=O)NC(C)(C(=O)c2ccccc2C)C(C)C)c1C (centres unmarked) [Example 63] ) is 0.26

Input CCC(CC)(NC(=O)c1cccc(OC)c1C)C(=O)c1ccc(F)cc1 [Example 38] . Output Z3 Rel Max FI: 0.04

What the record says about COc1ccccc1C(=O)C1(NC(=O)c2cccc(OC)c2C)CCCC1 [Example 40] : Z3 Rel Max FI is 0.70

Entry COc1cccc(C(=O)NC2(C(=O)c3cc(C)cc(C)c3)CCOCC2)c1C [Example 27] , Z3 Rel Max FI reported as 0.81

Z3 Rel Max FI reported for this compound COc1cccc(C(=O)NC2(C(=O)c3cc(F)c(F)c(OC)c3)CCCC2)c1C [Example 67] : 0.54

Please fill in: Z3 Rel Max FI reported for COc1cccc(C(=O)NC2(C(=O)c3cc(F)c(F)c(OC)c3)CCCCC2)c1C [Example 68] = 0.70

# Z3 Rel Max FI (compound: COc1cc(C(=O)C2(NC(=O)c3cccc(OC)c3C)CCCCC2)cc(OC)c1C [Example 66] ) is 0.17

Note to self: Z3 Rel Max FI recorded for COc1cccc(C(=O)NC(C)(CC(C)C)C(=O)c2cc(C)cc(C)c2)c1C (centres unmarked) [Example 55] was 0.72

Z3 Rel Max FI measured on COc1ccccc1C(=O)C1(NC(=O)c2cccc(OC)c2C)CCCCCC1 [Example 70] = 0.78

Input O=C(NC1(C(=O)c2ccccc2)CCCC1)c1ccccc1 [Example 139] . Output Z3 Rel Max FI: 0.00

The recorded Z3 Rel Max FI for entry COc1cccc(C(=O)NC2(C(=O)c3ccccc3)CCCC2)c1 [Example 141] equals 0.00

// COc1cccc(C(=O)NC(C)(C)C(=O)c2ccccc2)c1C [Example 76] : Z3 Rel Max FI value = 0.00
